Record type: pIC50 measurement. Applies to: UniProtKB Q02127
Sequence (Q02127 whole entry): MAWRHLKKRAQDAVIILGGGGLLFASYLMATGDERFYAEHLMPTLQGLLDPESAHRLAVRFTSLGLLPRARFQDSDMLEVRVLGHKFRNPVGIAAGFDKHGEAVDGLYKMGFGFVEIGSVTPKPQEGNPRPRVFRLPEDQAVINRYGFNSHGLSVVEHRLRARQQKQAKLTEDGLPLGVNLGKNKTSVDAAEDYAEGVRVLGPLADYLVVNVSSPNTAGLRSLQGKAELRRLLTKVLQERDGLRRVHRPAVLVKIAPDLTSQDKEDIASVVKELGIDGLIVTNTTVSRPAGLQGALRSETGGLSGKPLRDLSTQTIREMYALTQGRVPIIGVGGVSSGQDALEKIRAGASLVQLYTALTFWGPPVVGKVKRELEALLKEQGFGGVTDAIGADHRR
pIC50 field: float, defined as -log10 of concentration (mol/L).

O=C(Nc1cccc(C(F)(F)F)c1)c1c[nH]c2ccc(Nc3ccc([N+](=O)[O-])cc3)cc12
6.38

Okay, next one:
Q. Which pIC50 is reported for this compound? O=C(Nc1cccc(C(F)(F)F)c1)c1c[nH]c2ccc(Br)cc12
A. 6.71

---

compounds and their reported TC50
Test system: H1975 cells
Details: H1975 cells, WST-1, 24 h, mean ± standard error
Please state the figure in µM; there is no need to write the unit.

O=C(Nc1cccc(C(F)(F)F)c1)c1c[nH]c2ccc(Br)cc12 [compound 3]
28

Q. Report TC50 for O=C(Nc1cccc(C(F)(F)F)c1)c1c[nH]c2ccc(Nc3cccc([N+](=O)[O-])c3)cc12 [5d] please.
A. 29

Q. Next record, please: COc1ccc(-c2ccc3[nH]cc(C(=O)Nc4cccc(C(F)(F)F)c4)c3c2)cc1 [4b]
A. 35

Q. What would you report for O=C(Nc1cccc(C(F)(F)F)c1)c1c[nH]c2ccc(Nc3ccc([N+](=O)[O-])cc3)cc12 [compound 5c] ?
A. 15

These data points were gathered from paper PMC10286098.
